experimentalTarget: human MC4R (Homo sapiens, UniProt P32245)
Sequence (P32245 whole entry): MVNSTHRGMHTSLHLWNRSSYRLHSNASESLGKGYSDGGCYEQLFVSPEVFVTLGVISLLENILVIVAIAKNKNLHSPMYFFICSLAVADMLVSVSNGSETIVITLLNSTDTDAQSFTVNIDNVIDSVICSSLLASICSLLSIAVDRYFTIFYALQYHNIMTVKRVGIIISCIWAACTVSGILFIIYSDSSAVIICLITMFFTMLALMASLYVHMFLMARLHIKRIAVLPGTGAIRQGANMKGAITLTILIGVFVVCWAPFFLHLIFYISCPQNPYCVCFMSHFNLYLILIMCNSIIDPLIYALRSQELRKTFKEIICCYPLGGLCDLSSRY
testDescription: cAMP assay (LANCE) in T-Rex-293 cells expressing MC4R
conditionSummary: cAMP assay; mean (± SEM) of at least three independent experiments; read-out: EC50 hMC4R cAMP
propertyName: EC50

Known EC50 results, listed for orientation:
* CN1C(=O)[C@H]2N[C@@H](c3ccc(cc3)C(=O)NCCCC[C@@H](C(=O)NCC(N)=O)NC(=O)[C@H](CC(N)=O)NC(=O)[C@@H](Cc3ccccc3)NC(=O)[C@@H](Cc3ccccc3)NC(=O)[C@H](CCCNC(=N)N)NC(=O)[C@@H]1Cc1ccccc1)[C@H]1C(=O)N(c3ccccc3)C(=O)[C@H]12 [K3-minor, [II-FRffNK ]G] | > 10 µM
* C[C@@H]1NC(=O)[C@H](CC(N)=O)NC(=O)[C@@H](Cc2ccccc2)NC(=O)[C@@H](Cc2ccccc2)NC(=O)[C@H](CCCNC(=N)N)NC(=O)[C@H](Cc2ccccc2)N(C)C(=O)[C@@H]2N[C@H](c3ccc(cc3)C(=O)NCCCC[C@@H](C(=O)NCC(N)=O)NC(=O)[C@H](Cc3ccccc3)NC1=O)[C@@H]1C(=O)N(C)C(=O)[C@@H]12 [C4-major, [I-FRffNAFK ]G] | > 100 µM

Required: EC50, one value per molecule below.
1. C[C@@H]1NC(=O)[C@H](CC(N)=O)NC(=O)[C@H](Cc2ccccc2)NC(=O)[C@H](Cc2ccccc2)NC(=O)[C@H](CCCNC(=N)N)NC(=O)[C@H](Cc2ccccc2)N(C)C(=O)[C@H]2N[C@@H](c3ccc(cc3)C(=O)NCCCC[C@@H](C(=O)N[C@@H](Cc3ccc(O)cc3)C(N)=O)NC1=O)[C@H]1C(=O)N(c3ccccc3)C(=O)[C@H]12 [F2-minor, [ II-FRFFNAK ]Y]
2. CN1C(=O)[C@H]2N[C@@H](c3ccc(cc3)C(=O)NCCCC[C@@H](C(N)=O)NC(=O)[C@H](Cc3ccccc3)NC(=O)[C@H](Cc3ccccc3)NC(=O)[C@H](CCCNC(=N)N)NC(=O)[C@@H]1Cc1ccccc1)[C@H]1C(=O)N(c3ccccc3)C(=O)[C@H]12 [N3-major*, [II-FRFFK ]]
3. C[C@@H]1NC(=O)[C@H](CC(N)=O)NC(=O)[C@@H](Cc2ccccc2)NC(=O)[C@@H](Cc2ccccc2)NC(=O)[C@H](CCCNC(=N)N)NC(=O)[C@H](Cc2ccccc2)N(C)C(=O)[C@@H]2N[C@H](c3ccc(cc3)C(=O)NCCCC[C@@H](C(=O)N[C@@H](Cc3ccc(O)cc3)C(N)=O)NC1=O)[C@@H]1C(=O)N(C)C(=O)[C@@H]12 [G1-major, [I-FRffNAK ]Y]

A.
1. > 100 µM
2. > 100 µM
3. > 10 µM

Q. Missing value: EC50, human MC4R (Homo sapiens, UniProt P32245), entry CN1C(=O)[C@@H]2N[C@H](c3ccc(cc3)C(=O)NCCCC[C@@H](C(=O)NCC(N)=O)NC(=O)[C@H](CC(N)=O)NC(=O)[C@@H](Cc3ccccc3)NC(=O)[C@@H](Cc3ccccc3)NC(=O)[C@H](CCCNC(=N)N)NC(=O)[C@@H]1Cc1ccccc1)[C@@H]1C(=O)N(c3ccccc3)C(=O)[C@@H]12 [K3-major, [II-FRffNK ]G] . Fill in?
A. > 10 µM

----------
experimentalTarget: human MC1R (Homo sapiens, UniProt Q01726)
Sequence (Q01726 whole entry): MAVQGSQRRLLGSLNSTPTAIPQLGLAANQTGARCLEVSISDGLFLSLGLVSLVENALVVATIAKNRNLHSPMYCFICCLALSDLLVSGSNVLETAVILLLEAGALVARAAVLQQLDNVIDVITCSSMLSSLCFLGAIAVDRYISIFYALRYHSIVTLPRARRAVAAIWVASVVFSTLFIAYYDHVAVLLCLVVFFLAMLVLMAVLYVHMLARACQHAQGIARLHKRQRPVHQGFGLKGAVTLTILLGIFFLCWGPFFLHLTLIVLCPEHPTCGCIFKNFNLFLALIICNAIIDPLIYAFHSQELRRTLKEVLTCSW
testDescription: cAMP assay (LANCE) in T-Rex-293 cells expressing MC1R
conditionSummary: cAMP assay; mean (± SEM) of at least three independent experiments; read-out: EC50 hMC1R cAMP
propertyName: EC50 (nM)
Answers are plain numbers, in nM.

Q. What measured EC50 goes with C[C@@H]1NC(=O)[C@H](CC(N)=O)NC(=O)[C@@H](Cc2ccccc2)NC(=O)[C@@H](Cc2ccccc2)NC(=O)[C@H](CCCNC(=N)N)NC(=O)[C@H](Cc2ccccc2)N(C)C(=O)[C@@H]2N[C@H](c3ccc(cc3)C(=O)NCCCC[C@@H](C(=O)N[C@@H](Cc3ccc(O)cc3)C(N)=O)NC1=O)[C@@H]1C(=O)N(C)C(=O)[C@@H]12 [G1-major, [I-FRffNAK ]Y] ?
A. 1800

----------
experimentalTarget: human MC1R (Homo sapiens, UniProt Q01726)
Construct: expressed in transfected cells
testDescription: cAMP assay (LANCE) in T-Rex-293 cells expressing MC1R
Format: cell-based
conditionSummary: T-REx-293; read-out: % Effect hMC1R cAMP
propertyName: Emax (%)
One number for each entry, in %.

• C[C@@H]1NC(=O)[C@H](CC(N)=O)NC(=O)[C@H](Cc2ccccc2)NC(=O)[C@H](Cc2ccccc2)NC(=O)[C@H](CCCNC(=N)N)NC(=O)[C@H](Cc2ccccc2)N(C)C(=O)[C@H]2N[C@@H](c3ccc(cc3)C(=O)NCCCC[C@@H](C(=O)N[C@@H](Cc3ccc(O)cc3)C(N)=O)NC1=O)[C@H]1C(=O)N(C)C(=O)[C@H]12 [F1-major*, [ I-FRFFNAK ]Y] = 31
• C[C@@H]1NC(=O)[C@H](CC(N)=O)NC(=O)[C@H](Cc2ccccc2)NC(=O)[C@H](Cc2ccccc2)NC(=O)[C@H](CCCNC(=N)N)NC(=O)[C@H](Cc2ccccc2)N(C)C(=O)[C@@H]2N[C@H](c3ccc(cc3)C(=O)NCCCC[C@@H](C(=O)N[C@@H](Cc3ccc(O)cc3)C(N)=O)NC1=O)[C@@H]1C(=O)N(C)C(=O)[C@@H]12 [F1-minor*, [ I-FRFFNAK ]Y] = 36
• C[C@@H]1NC(=O)[C@H](CC(N)=O)NC(=O)[C@@H](Cc2ccccc2)NC(=O)[C@@H](Cc2ccccc2)NC(=O)[C@H](CCCNC(=N)N)NC(=O)[C@H](Cc2ccccc2)N(C)C(=O)[C@@H]2N[C@H](c3ccc(cc3)C(=O)NCCCC[C@@H](C(=O)N[C@@H](Cc3ccc(O)cc3)C(N)=O)NC1=O)[C@@H]1C(=O)N(C)C(=O)[C@@H]12 [G1-major, [I-FRffNAK ]Y] = 38
• CN1C(=O)[C@@H]2N[C@H](c3ccc(cc3)C(=O)NCCCC[C@@H](C(=O)N[C@@H](Cc3ccc(O)cc3)C(N)=O)NC(=O)[C@H](Cc3ccccc3)NC(=O)[C@H](Cc3ccccc3)NC(=O)[C@H](CCCNC(=N)N)NC(=O)[C@@H]1Cc1ccccc1)[C@@H]1C(=O)N(c3ccccc3)C(=O)[C@@H]12 [N1-minor*, [II-FRFFK ]Y] = 56
• CN1C(=O)[C@@H]2N[C@H](c3ccc(cc3)C(=O)NCCCC[C@@H](C(=O)N[C@@H](Cc3ccc(O)cc3)C(N)=O)NC(=O)[C@H](CC(N)=O)NC(=O)[C@@H](Cc3ccccc3)NC(=O)[C@@H](Cc3ccccc3)NC(=O)[C@H](CCCNC(=N)N)NC(=O)[C@@H]1Cc1ccccc1)[C@@H]1C(=O)N(c3ccccc3)C(=O)[C@@H]12 [K1-major, [II-FRffNK ]Y] = 47

Q. Quick one: Emax for COc1ccc(N2C(=O)[C@@H]3[C@H](C2=O)[C@H]2N[C@@H]3c3ccc(cc3)C(=O)NCCCC[C@@H](C(=O)NCC(N)=O)NC(=O)[C@H](CC(N)=O)NC(=O)[C@@H](Cc3ccccc3)NC(=O)[C@@H](Cc3ccccc3)NC(=O)[C@H](CCCNC(=N)N)NC(=O)[C@H](Cc3ccccc3)N(C)C2=O)cc1 [K4-major, [III-FRffNK ]G] ?
A. 85

----------
Task for the reader: assign each of the following compounds its reported EC50.
experimentalTarget: human MC4R (Homo sapiens, UniProt P32245)
testDescription: cAMP assay (LANCE) in T-Rex-293 cells expressing MC4R
conditionSummary: cAMP assay; mean (± SEM) of at least three independent experiments; read-out: EC50 hMC4R cAMP

- COc1ccc(N2C(=O)[C@@H]3[C@H](C2=O)[C@H]2N[C@@H]3C(=O)N(C)[C@@H](Cc3ccccc3)C(=O)N[C@@H](CCCNC(=N)N)C(=O)N[C@H](Cc3ccccc3)C(=O)N[C@H](Cc3ccccc3)C(=O)N[C@@H](CC(N)=O)C(=O)N[C@H](C(=O)NCC(N)=O)CCCCNC(=O)c3ccc2cc3)cc1 [K4-minor, [III-FRffNK ]G]: > 100 µM

Q. I'd like to know its EC50. The compound in question is CN1C(=O)[C@@H]2N[C@H](c3ccc(cc3)C(=O)NCCCC[C@@H](C(=O)NCC(N)=O)NC(=O)[C@H](CC(N)=O)NC(=O)[C@H](Cc3ccccc3)NC(=O)[C@H](Cc3ccccc3)NC(=O)[C@H](CCCNC(=N)N)NC(=O)[C@@H]1Cc1ccccc1)[C@@H]1C(=O)N(c3ccccc3)C(=O)[C@@H]12 [J3-minor*, [ II-FRFFNK ]G]
A. > 100 µM
